// shrunken log2 fold change lookup, one value per entry
# Tested on: Escherichia coli TOP10;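 further: peptides expressed intracellularly from a pBAD plasmid library in pooled LB shake-flask culture, induced with 0.3% L-arabinose, DNA abundance read by NGS, three biological replicates, DESeq2 with apeglm shrinkage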
# testDetails: shrunken log2 fold change of peptide-encoding DNA abundance (4.5 h post-induction vs induction); higher = less antimicrobial activity (less host growth inhibition)
# testConditions: time post-induction: 4.5 h; library: site-saturation at positions 5, 18, 19, 20
No unit in the answer, please; the number alone is enough.

Worked examples, 3 sequences total:
sequenceRecord	shrunken log2 fold change
RRIRDRPPRLPRPRPRPIGHPRP	0.012
RRIRMRPPRLPRPRPRPHGKPRP	-0.0884
RRIRFRPPRLPRPRPRPHIVPRP	-0.0839

Let us examine a further case.
What the record says about `RRIRLRPPRLPRPRPRPIARPRP` : shrunken log2 fold change is -0.0553
